B1: OAS1 (parent)
chain: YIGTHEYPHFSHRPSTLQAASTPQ

Variants of: B1
Test: protein stability index of a GFP-peptide fusion (GPS, HEK-293T) (PSI 1-6); higher = more stable;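 note: lentivirally expressed fusions sorted by FACS into six bins by GFP to DsRed ratio, PSI derived from sequencing read proportions per bin multiplied by bin number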
Settings: c terminus: a fixed tail appended
Decision: protein stability index compared against 2; not below it gives true, below it gives false.

Could you verify whether the entry I2Y shows protein stability index of no less than 2?
true

Given H9I , state whether its protein stability index is at least 2.
true

Given A19D , state whether its protein stability index is at least 2.
true

Hi team, for P23T , is the recorded protein stability index at or above 2?
true

Assess whether reported protein stability index for T22H sits at 2 or higher.
false

Exam item: decide whether the reported protein stability index for R13C is at least 2.
false

Identify whether the reported protein stability index of the following variant is 2 or greater: T4P
true

Could you verify whether the entry S11W shows protein stability index of no less than 2?
true

Could you tell me if the measured protein stability index of H12V reaches 2 or more?
false

Could you tell me if the measured protein stability index of P23H reaches 2 or more?
true

Assess whether reported protein stability index for A19H sits at 2 or higher.
false

Is protein stability index for E6V at or above 2?
false

// inclusive: protein stability index at least 2? input: L17N
true

API: above_or_equal(metric=protein stability index, cutoff=2) for item H9D
true

// inclusive: protein stability index at least 2? input: T4V
false

Say whether A19S shows protein stability index of 2 or more.
false

Determine whether measured protein stability index meets or exceeds 2 for I2M
true

protein stability index >= 2 for H9R ?
true

Can Y7F be said to have protein stability index at or above 2?
false

Check the entry H5A : does protein stability index equal or exceed 2?
false

Origin of values: the supplement of paper PMC10567573
